experiment: Fluorescence complexation studies of receptors with urea; type: binding; details: in DMSO, 30 μM receptor, excitation 384 nm; read-out: Kd for urea
recorded_endpoint: Kd
Just the number plus its unit, please.

Problem: Kindly indicate its recorded Kd. Item: Nc1cccc(-c2ccc3c(n2)-c2nc4nc5c(cc4cc2CC3)CCc2ccc(C(=O)O)nc2-5)n1
Result: 33 mM

* * *

assay: Fluorescence complexation studies of receptors with urea; assay type: binding; details: 98:2 (v/v) DMSO:water, 20 μM receptor, excitation 407 nm; read-out: Kd for urea
Structures can show the parent of a compound that is named as a salt.
recorded_endpoint: pKd
One number for each entry, as −log10 of the molar value.

Problem: Please give measured pKd of the following entry: O=C(O)c1ccc2c(n1)-c1nc3nc4c(cc3cc1CC2)CCc1ccc(-c2nc(O)cc(O)n2)nc1-4 [Compound ID, potassium salt]
Result: 1.30

Ref: patent US6525200B1
